// provenance: PubChem BioAssay (NCI)

Tested on: UACC-257 melanoma
Test: NCI tumour cell line growth inhibition, 48 h
Measured TGI of individual entries

- COMPOUND: "CSC(=O)C[C@@]12O[C@@H]([C@@H](C)C3CCC4[C@@H]5C(O)CC6=CC(=O)C=C[C@]6(C)C5CC[C@@]43C)C[C@](C)(O1)C(C)(C)O2 (some centres undefined)"
  TEST_SYSTEM: "UACC-257 melanoma"
  QUALIFYING_SIGN: "="
  TGI [µM]: 26.9
- COMPOUND: "CN(C)CCNc1ccc2ncn3c4ccc(O)cc4c(=O)c1c23"
  TEST_SYSTEM: "UACC-257 melanoma"
  QUALIFYING_SIGN: "="
  TGI [µM]: 19.7
- COMPOUND: "COC1OC2COC1(OCc1ccccc1)C1OC(C)(C)OC21 (centres undefined)"
  TEST_SYSTEM: "UACC-257 melanoma"
  QUALIFYING_SIGN: ">"
  TGI [µM]: 100
- COMPOUND: "O=C(C[n+]1ccccc1)N/N=C(/CCC(=O)N(Cc1ccccc1)Cc1ccccc1)CC(=O)c1ccccc1"
  TEST_SYSTEM: "UACC-257 melanoma"
  QUALIFYING_SIGN: ">"
  TGI [µM]: 100
- COMPOUND: "Nc1nc(=O)n(C2CCC(CO)O2)cc1F (centres undefined)"
  TEST_SYSTEM: "UACC-257 melanoma"
  QUALIFYING_SIGN: ">"
  TGI [µM]: 100
- COMPOUND: "O=[N+]([O-])c1ncc(N(CCO)CCO)s1"
  TEST_SYSTEM: "UACC-257 melanoma"
  QUALIFYING_SIGN: "="
  TGI [µM]: 71.4
- COMPOUND: "CC1(C)Oc2ccc3ccc(=O)oc3c2C(O)C1O (centres undefined)"
  TEST_SYSTEM: "UACC-257 melanoma"
  QUALIFYING_SIGN: "="
  TGI [µM]: 94.9
- COMPOUND: "O=c1[nH]c(NCc2cccnc2)nc2nc[nH]c12"
  TEST_SYSTEM: "UACC-257 melanoma"
  QUALIFYING_SIGN: ">"
  TGI [µM]: 100
- COMPOUND: "NC(=S)N/N=C/c1ccc(OC(=O)COc2cc(Cl)c(Cl)cc2Cl)cn1"
  TEST_SYSTEM: "UACC-257 melanoma"
  QUALIFYING_SIGN: "="
  TGI [µM]: 51.5
